The values you see were collected from patent US20100143349A1.

SYSTEM_NAME: T1, hRAGE-Fc (human, UniProt Q15109 23-342, biotin label in the selections and HTRF assays)
T1 construct: extracellular domain; also called biotin labeled hRAGE-Fc; Biotin-labeled RAGE-Fc; not shown: Fc part
TEST_NAME: IC50 of parental M4 scFv over IC50 of clone, HTRF competition
OBSERVABLE: Fold gain scFv (hRAGE) (fold)
Give the value in fold but do not write fold after it.

3B2 scFv (scFv) scFv: DIQMTQSPSSLSASVGDRVTITCRASQDVGIYVNWFQQKPGKAPRRLIYRATNLADGVPSRFSGSRSGTDFTLTISSLQPEDFATYYCLEFDEHPLTFGGGTKVEIKDGGGSGGGGSGGGGSSEVQLVESGGGLVQPGGSLRLSCAASGFTFNNYWMTWVRQAPGKGLEWVASIDNSGDNTYYPDSVKDRFTISRDNAKNSLYLQMNSLRAEDTAVYYCARGGDILVGLDYWGQGTLVTVSS | 35.8
3A6 scFv (scFv) scFv: DIQMTQSPSSLSASVGDRVTITCRASQDVGIYVNWFQQKPGKAPRRLIYRATNLADGVPSRFSGSRSGTDFTLTISSLQPEDFATYYCLEFDEHPLTFGGGTKVEIKDGGGSGGGGSGGGGSSEVQLVESGGGLVQPGGSLRLSCAASGFTFNNYWMTWVRQAPGKGLEWVASIDNSGDNTYYPDSVKDRFTISRDNAKNSLYLQMNSLRAEDTAVYYCARGGDILVSLDVWGQGTLVTVSS | 70

Proceeding to the next binder to report its Fold gain scFv (hRAGE).
Input: Determine from records and report Fold gain scFv (hRAGE) for 6B6 scFv (scFv) scFv: DIQMTQSPSSLSASVGDRVTITCRASQDVGIYVNWFQQKPGKAPRRLIYRATNLADGVPSRFSGSRSGTDFTLTISSLQPEDFATYYCLEFDEHPLTFGGGTKVEIKDGGGSGGGGSGGGGSSEVQLVESGGGLVQPGGSLRLSCAASGFTFNNYWMTWVRQAPGKGLEWVASIDNSGDNTYYPDSVKDRFTISRDNAKNSLYLQMNSLRAEDTAVYYCARGGDIIISLDWWGQGTLVTVSS
Output: 50.7
